test system: NA uptake, rat brain synaptosomas, HYPOTHALAMUS; test: In vitro NA uptake inhibition on brain synaptosomes (hypothalamus); format: biochemical; settings: listed as (+)-p-FLUORO-MA
measure.name: IC50 (µM)

* CNC(C)Cc1ccc(F)cc1 (single isomer, unassigned; (+)) [(+)-p-F-metamphetamine] | 7.7
